Numbers sourced from PubChem BioAssay.

experiment: inhibitors of Chlamydomonas gravitaxis, primary screen, whole organism, Chlamydomonas reinhardtii, WT vs cilia-less mutant, absorbance, 96-well (AID 463189); conditions: OD600 absorbance, 2 days, at 10 µM
Active and inactive are the calls of the source.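 Rule for the calls: active = inhibition at or above 50% relative to wild type and mutant plate controls; inactive = inhibition below 50%.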
Use one of these outcomes when replying: YES (active), NO (inactive)

stdin: Test call for this compound, please: CC1(C)C2CCC1(C)C(NC(=O)CCN1CCCCC1)C2 (stereo unspecified)
stdout: YES

stdin: Follow-up item: COC(=O)CSc1nc2c(c(=O)n(C)c(=O)n2C)n1CCC(C)C
stdout: NO

stdin: Please give the result for S=c1[nH]nc(-c2ccco2)n1C1CCCCC1 too.
stdout: NO

stdin: What do you get for COc1ccc(N2C(=O)CC(N(Cc3ccc(S(N)(=O)=O)cc3)C(C)=O)C2=O)cc1 (stereo unspecified) ?
stdout: NO

stdin: Also need CCOC(=O)c1[nH]c2ccc(C)cc2c1N , thanks.
stdout: NO

stdin: What about CCOC(=O)CSc1nnc(C)c(=O)[nH]1 ?
stdout: NO

stdin: Quick one: Cn1c(=O)[nH]c(=O)c2c1nc(N1CCN(c3cccc(Cl)c3)CC1)n2CCCc1ccccc1
stdout: NO

stdin: Try this compound next: CCOC(=O)c1[nH]c2ccc(F)cc2c1N=C(C)N(CC)CC
stdout: NO

stdin: Also, C/C(NC(=O)c1cccs1)=C1\C(=O)C[C@@H]2[C@H]1C2(C)C please.
stdout: NO

stdin: Lookup CC(O)CNc1nc2c(c(=O)n(C)c(=O)n2C)n1Cc1cccc(C(F)(F)F)c1 (stereo unspecified)
stdout: NO

stdin: Item: CCc1c(C)c2cc(Cl)c(O)c(CN3CCCCC3)c2oc1=O
stdout: NO
